molecular target: Neuromedin-K/NK2 receptor (tachykinin receptor 2), Rattus norvegicus; test: Tested in vitro to inhibit the binding of [125I]NKA to its receptor in rat duodenum membrane
Readout Name: Ki (nM)

[[record]]
smiles = "CC(=O)NC1(c2ccccc2)CCN(CC[C@H](CN(C)C(=O)c2ccccc2)c2ccc(Cl)c(Cl)c2)CC1"
unit_spec = "nM"
observed_value = 0.51

